This collection of values is drawn from ChEMBL document CHEMBL1148383.

- System: Streptococcus pyogenes
- Assay protocol: Antibacterial activity against Streptococcus pyogenes PSCB-0545
- Type: functional
Assay endpoint: MIC (µg/mL)
# output: bare number, implied unit µg/mL

query: Supply reported MIC belonging to this compound: CC[C@H]1O/C(O)=C/C(=O)[C@H](C)[C@@H](OC2OC(C)C(O)C(N(C)C)C2O)[C@@H](C/C=C/C(=O)OC)C[C@@H](C)C(=O)/C=C/C(C)=C/[C@@H]1COC1OC(C)C(O)C(OC)C1OC (stereo not given in full)
result: 4

query: Supply reported MIC belonging to this compound: CC[C@H]1O/C(O)=C/C(=O)[C@H](C)[C@@H](OC2OC(C)C(O)C(N(C)C)C2O)[C@@H](CC=O)C[C@@H](C)C(=O)CCC(C)C[C@@H]1COC1OC(C)C(O)C(OC)C1OC (stereo not given in full)
result: 1

query: Supply reported MIC belonging to this compound: CC[C@H]1OC(=O)C[C@@H](O)[C@H](C)[C@@H](O[C@@H]2O[C@H](C)[C@@H](O[C@H]3C[C@@](C)(O)[C@@H](O)[C@H](C)O3)[C@H](N(C)C)[C@H]2O)[C@@H](CC=O)C[C@@H](C)C(=O)/C=C/C(C)=C/[C@@H]1CO[C@@H]1O[C@H](C)[C@@H](O)[C@@H](OC)[C@H]1OC [TYLOSIN]
result: 0.5

query: Supply reported MIC belonging to this compound: CC[C@H]1OC(=O)CC2(O)C(C=O)[C@@H](C[C@@H](C)C(=O)/C=C/C(C)=C/[C@@H]1CO[C@@H]1O[C@@H](C)[C@@H](O)[C@@H](OC)[C@@H]1OC)[C@H](O[C@@H]1O[C@@H](C)[C@@H](O)[C@@H](N(C)C)[C@H]1O)[C@H]2C (stereo not given in full)
result: 32

query: Supply reported MIC belonging to this compound: CC[C@H]1O/C(O)=C/C(=O)[C@H](C)[C@@H](OC2OC(C)C(O)C(N(C)C)C2O)[C@@H](CC=O)C[C@@H](C)C(=O)/C=C/C(C)=C/[C@@H]1COC1OC(C)C(O)C(OC)C1OC (stereo not given in full)
result: 4
